study.target: HLA-A*02:11
assay.method.text: IEDB peptide-MHC binding, purified MHC/competitive/fluorescence; filed as Kd, often an IC50 or EC50 that approximates it; bounds were set here for any values at or beyond the usual limits of such assays
particulars: source organism: Shigella dysenteriae Sd197
parameter.measured: pKd
One number for each entry, as −log10 of the molar value.

Name the reported pKd value associated with the sequence IEDDEIIWV 9.70

----------
study.target: HLA-B*51:01
assay.method.text: IEDB peptide-MHC binding, purified MHC/competitive/fluorescence; filed as Kd, often an IC50 or EC50 that approximates it; bounds were set here for any values at or beyond the usual limits of such assays
particulars: source organism: Mycobacterium tuberculosis variant bovis BCG str. Pasteur 1173P2
parameter.measured: Kd

Suppose we examine the sequence AEDLADHHV ; what Kd value has been reported? ≥ 20 µM

----------
study.target: HLA-B*51:01
assay.method.text: IEDB peptide-MHC binding, purified MHC/competitive/fluorescence; filed as Kd, often an IC50 or EC50 that approximates it; bounds were set here for any values at or beyond the usual limits of such assays
particulars: source organism: Yersinia mollaretii ATCC 43969
parameter.measured: Kd

Name the reported Kd value associated with the sequence MMWIPGWFG ≥ 20 µM

----------
study.target: HLA-A*02:03
assay.method.text: IEDB peptide-MHC binding, purified MHC/direct/fluorescence; filed as Kd, often an IC50 or EC50 that approximates it; bounds were set here for any values at or beyond the usual limits of such assays
particulars: source organism: Reston ebolavirus
pKd: −log10 of the molar value.
parameter.measured: pKd

Which pKd value belongs to GVPPKVVSY ? ≤ 4.70

----------
study.target: HLA-B*58:01
assay.method.text: IEDB peptide-MHC binding, purified MHC/direct/fluorescence; filed as Kd, often an IC50 or EC50 that approximates it; bounds were set here for any values at or beyond the usual limits of such assays
particulars: source organism: Yersinia enterocolitica
parameter.measured: Kd
Give your result as the value with the unit written after it.

Which Kd is reported for this sequence? RIYSHIAPY 58 nM

----------
Can you tell me Kd for the items I'm about to list?
study.target: HLA-B*07:02
assay.method.text: IEDB peptide-MHC binding, purified MHC/competitive/radioactivity; filed as Kd, often an IC50 or EC50 that approximates it; bounds were set here for any values at or beyond the usual limits of such assays
particulars: source organism: SARS coronavirus Tor2
Give bare numbers, in nM.

macromolecule.sequence	u	recorded.result
VPWSKILAY	nM	447

Please turn your attention to the following entry.
Item FPQVGGLTSI has what recorded Kd? 162

----------
Provide the reported pKd of each item.
study.target: HLA-B*27:05
assay.method.text: IEDB peptide-MHC binding, purified MHC/direct/fluorescence; filed as Kd, often an IC50 or EC50 that approximates it; bounds were set here for any values at or beyond the usual limits of such assays
particulars: source organism: Vibrio parahaemolyticus
pKd: −log10 of the molar value.

macromolecule.sequence	parameter.measured	recorded.result
NSSYWRQGY	pKd	≤ 4.70

pKd lookup needed for MSSAMSMMH , thanks. ≤ 4.70

----------
study.target: HLA-B*39:01
assay.method.text: IEDB peptide-MHC binding, purified MHC/direct/fluorescence; filed as Kd, often an IC50 or EC50 that approximates it; bounds were set here for any values at or beyond the usual limits of such assays
particulars: source organism: Vibrio parahaemolyticus RIMD 2210633
parameter.measured: Kd

# Kd lookup, item NSSYWRQGY ≥ 20 µM

----------
study.target: HLA-A*26:01
assay.method.text: IEDB peptide-MHC binding, purified MHC/direct/fluorescence; filed as Kd, often an IC50 or EC50 that approximates it; bounds were set here for any values at or beyond the usual limits of such assays
particulars: source organism: Vibrio cholerae V52
parameter.measured: Kd (nM)
Give bare numbers, in nM.

Can you look up the measured Kd of DIIWHLNDL for me? 479

----------
study.target: HLA-A*26:01
assay.method.text: IEDB peptide-MHC binding, purified MHC/direct/fluorescence; filed as Kd, often an IC50 or EC50 that approximates it; bounds were set here for any values at or beyond the usual limits of such assays
particulars: source organism: Brucella melitensis
pKd: −log10 of the molar value.
parameter.measured: pKd

Name the reported pKd value associated with the sequence ALFEDYPGC ≤ 4.70

----------
study.target: HLA-A*02:06
assay.method.text: IEDB peptide-MHC binding, purified MHC/competitive/fluorescence; filed as Kd, often an IC50 or EC50 that approximates it; bounds were set here for any values at or beyond the usual limits of such assays
particulars: source organism: Escherichia coli 536
parameter.measured: pKd
Give bare numbers, as −log10 of the molar value.

Need pKd of KLYPNVDFY , thanks. 5.80

----------
study.target: HLA-A*68:02
assay.method.text: IEDB peptide-MHC binding, purified MHC/competitive/radioactivity; filed as Kd, often an IC50 or EC50 that approximates it; bounds were set here for any values at or beyond the usual limits of such assays
particulars: source organism: Vaccinia virus Copenhagen
parameter.measured: pKd
Give bare numbers, as −log10 of the molar value.

Please provide the recorded pKd for LILSCIFAFI , tested on HLA-A*68:02. 7.76

----------
study.target: HLA-A*26:01
assay.method.text: IEDB peptide-MHC binding, purified MHC/direct/fluorescence; filed as Kd, often an IC50 or EC50 that approximates it; bounds were set here for any values at or beyond the usual limits of such assays
particulars: source organism: Vibrio parahaemolyticus
parameter.measured: Kd

What is its Kd for HLA-A*26:01? Entry: MSSAMSMMH ≥ 20 µM

----------
study.target: HLA-B*15:01
assay.method.text: IEDB peptide-MHC binding, purified MHC/direct/fluorescence; filed as Kd, often an IC50 or EC50 that approximates it; bounds were set here for any values at or beyond the usual limits of such assays
particulars: source organism: Influenza A virus (A/Chicken/Nanchang/2-220/2001(H3N6))
parameter.measured: pKd
Answers are plain numbers, as −log10 of the molar value.

If you can, please state the reported pKd value of TQFESLKIY . 6.68

----------
study.target: HLA-B*73:01
assay.method.text: IEDB peptide-MHC binding, purified MHC/direct/fluorescence; filed as Kd, often an IC50 or EC50 that approximates it; bounds were set here for any values at or beyond the usual limits of such assays
particulars: source organism: Cryptosporidium parvum Iowa II
parameter.measured: Kd

I'd like to know its Kd. The sequence in question is KHNSAESAK ≥ 20 µM

----------
study.target: HLA-A*68:02
assay.method.text: IEDB peptide-MHC binding, purified MHC/direct/fluorescence; filed as Kd, often an IC50 or EC50 that approximates it; bounds were set here for any values at or beyond the usual limits of such assays
particulars: source organism: Orthohantavirus andesense
pKd: −log10 of the molar value.
parameter.measured: pKd

Report pKd for STGKSIKFK tested on HLA-A*68:02. ≤ 4.70

----------
For each entry below, report its Kd value.
study.target: HLA-A*69:01
assay.method.text: IEDB peptide-MHC binding, purified MHC/competitive/fluorescence; filed as Kd, often an IC50 or EC50 that approximates it; bounds were set here for any values at or beyond the usual limits of such assays
particulars: source organism: Zaire ebolavirus

Need Kd for each of these sequences.
1. LSDAIFDDL
2. TTIGEWAFW

["≥ 20 µM", "≥ 20 µM"]

----------
study.target: HLA-C*12:03
assay.method.text: IEDB peptide-MHC binding, purified MHC/direct/fluorescence; filed as Kd, often an IC50 or EC50 that approximates it; bounds were set here for any values at or beyond the usual limits of such assays
particulars: source organism: human gammaherpesvirus 4
pKd: −log10 of the molar value.
parameter.measured: pKd

Please provide the recorded pKd for YAMAIRQAI , tested on HLA-C*12:03. ≥ 9.00

----------
study.target: HLA-B*53:01
assay.method.text: IEDB peptide-MHC binding, purified MHC/competitive/radioactivity; filed as Kd, often an IC50 or EC50 that approximates it; bounds were set here for any values at or beyond the usual limits of such assays
particulars: source organism: Hepacivirus hominis
pKd: −log10 of the molar value.
parameter.measured: pKd

Name the recorded pKd for RDWAHNSL . ≤ 4.06

----------
study.target: HLA-A*26:01
assay.method.text: IEDB peptide-MHC binding, purified MHC/competitive/fluorescence; filed as Kd, often an IC50 or EC50 that approximates it; bounds were set here for any values at or beyond the usual limits of such assays
particulars: source organism: Lechiguanas virus
pKd: −log10 of the molar value.
parameter.measured: pKd

Give recorded pKd with HLA-A*26:01 for the following sequence: HTQAIEGAW ≤ 4.70

----------
study.target: HLA-B*44:03
assay.method.text: IEDB peptide-MHC binding, purified MHC/competitive/radioactivity; filed as Kd, often an IC50 or EC50 that approximates it; bounds were set here for any values at or beyond the usual limits of such assays
particulars: source organism: Mammarenavirus machupoense
parameter.measured: Kd (nM)
Answers are plain numbers, in nM.

Data request, read-out Kd, for SEILKTLGF 14.1

----------
study.target: HLA-A*02:50
assay.method.text: IEDB peptide-MHC binding, purified MHC/competitive/fluorescence; filed as Kd, often an IC50 or EC50 that approximates it; bounds were set here for any values at or beyond the usual limits of such assays
particulars: source organism: Variola virus
parameter.measured: Kd (nM)
One number for each entry, in nM.

Which Kd is listed for VMCIQMKYV ? 18.1
